Data origin, for the record: the supplement of paper PMC10065799

Tested on: c-Src
Test: phosphorylation enrichment, bacterial display (enrichment ratio); higher = better substrate or ligand; peptides without Tyr show the background;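 further: 11-residue human phosphosite peptides and single-mutation variants displayed on the E. coli surface, counted by deep sequencing, each peptide's frequency after selection divided by its frequency in the unselected input library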;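 further: frequency after pTyr selection over input frequency; kinase dosed for 20-30% of maximal phosphorylation in three min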
Exercise: for every item that follows, state its recorded phosphorylation enrichment.
One number for each entry.

Example entries and their recorded answers appear below.
1) NHYKRYNLCAE [PTEN_Y68_I67R] ... 0.508
2) QLPRGYISILV [BAG3_Y205_P209L] ... 0.479

Respectfully, I request phosphorylation enrichment for each entry included below.
1. SEKIVYGHVDD [ACO2_Y71_L74V]
2. GCRSKHVGLWG [KCNQ1_Y184_Y184H]

# output
0.649
0.359

====

Tested on: c-Abl (mouse)
Assay: phosphorylation enrichment, bacterial display (enrichment ratio); higher = better substrate or ligand; peptides without Tyr show the background
Exercise: for every item that follows, state its recorded phosphorylation enrichment.

1. GHRPVYSEDEQ [CHST6_Y362_Y358H] ... 0.757

Respectfully, I request phosphorylation enrichment for each entry included below.
1. LRLFSYSTTIR [CYP7B1_Y365_S363F]
2. TTICKYITPME [GUCY2C_Y839_S840I]

# output
1: 0.663; 2: 0.56

====

Test system: AncSZ
Assay: phosphorylation enrichment, bacterial display (enrichment ratio); higher = better substrate or ligand; peptides without Tyr show the background
Exercise: for every item that follows, state its recorded phosphorylation enrichment.
Numbers only.

1) EKIANYKEGTF [CLRN1_Y171_YF] ... 0.967

Respectfully, I request phosphorylation enrichment for each entry included below.
1. IIRRLYLKWHP [SACS_Y4333]
2. DELDKYSEVLK [TPM1_Y60_A63V]
3. FASALYRQRRS [FGF11_Y162_YF]
4. KWRGQYDVAIK [BTK_Y425]
5. DPEAAYTTRGG [EPHA3_Y779]
6. PLLLSYFLIKW [NUP160_Y773_YF]

# output
1.04
1.49
0.689
0.676
0.629
1.37

Respectfully, I request phosphorylation enrichment for each entry included below.
1. ATHRSYDSDNP [MMUT_Y146_G145S]
2. SGPRRYTIAAL [TTR_Y125]

# output
[1.13, 0.605]

Respectfully, I request phosphorylation enrichment for each entry included below.
1. HEEKVYLSRGD [CRACR2A_Y141]
2. EAVLHYKHQNQ [MTOR_Y1804]
3. LIHTKCPQLLP [AHCY_Y143_Y143C]
4. WVYNHYRWFIW [BRCA2_Y2624_I2627F]
5. FEGAIYRKDIG [GART_Y417_V421I]

# output
1. 0.884
2. 0.632
3. 0.693
4. 1.12
5. 0.868

Respectfully, I request phosphorylation enrichment for each entry included below.
1. LYNQDYPIHSV [GATM_Y227]
2. SDGHEYIFVDP [PDGFRB_Y579_YF]
3. LDFPEYNGVDR [CASQ1_Y43_D44N]
4. EFISECCGEII [EZH2_Y641_Y641C]
5. CRAVKYLQMVR [AVPR2_Y117_G122R]
6. KMGNIYRTEYG [MRPL3_Y265]
7. SSNLFYRCLTA [CNGA3_Y169_W171C_YF]
8. TSEASYYKSLN [NGEF_Y288]

# output
[1.17, 2.08, 2.84, 1.27, 0.882, 0.621, 1.03, 0.743]
